The reported numbers originate from ChEMBL document CHEMBL1961873.

Target: Protein kinase C alpha type (Homo sapiens) (UniProt P17252);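 note: each value is the mean percent inhibition of PKC-alpha kinase activity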
Conditions: at 0.1 µM
Listed here are molecules together with their documented inhibition.
# value in %; strip the unit string

Guide cases for inhibition, answers given:
-- ask Could you share which inhibition value was measured for `NCc1ccc(-n2c(-c3nonc3N)nc3cnccc32)cc1` ?
-- reply 4.7

-- ask Could you share which inhibition value was measured for `NS(=O)(=O)c1ccc(N/N=C2\C(=O)Nc3ccc(-c4cnco4)cc32)cc1` ?
-- reply -4.06

-- ask Could you share which inhibition value was measured for `O=C(Nc1n[nH]c2cc(-c3ccccc3)ccc12)C1CC1` ?
-- reply 0.99

-- ask Could you share which inhibition value was measured for Nc1nccc(-c2c(-c3ccc(F)cc3)ncn2C2CCC(O)CC2)n1 (stereo unspecified) ?
-- reply 0.74

-- ask Could you share which inhibition value was measured for `CCc1cccc(CC)c1/C=C/c1cncc(C(=O)NC)c1` ?
-- reply 1.01

Next:
-- ask Could you share which inhibition value was measured for `COc1ccc2cc(-c3c(-c4ccncc4)nc(-c4ccc(S(C)(=O)=O)cc4C)n3C)ccc2c1` ?
-- reply 1.11

-- ask Could you share which inhibition value was measured for `NS(=O)(=O)c1ccc(Nc2cc(-c3ccc(O)c(F)c3)n[nH]2)cc1` ?
-- reply -0.97

-- ask Could you share which inhibition value was measured for `COc1ccc(C2=C(N3CCc4ccccc43)C(=O)NC2=O)cc1` ?
-- reply 1.46

-- ask Could you share which inhibition value was measured for `CCc1nccc2c1nc(-c1nonc1N)n2CC` ?
-- reply 1.25

###

Listed here are compounds together with their documented inhibition.
Target: Tyrosine-protein kinase ITK/TSK (Homo sapiens);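 note: mean percent inhibition of ITK from the GSK PKIS screen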
Sequence (whole entry): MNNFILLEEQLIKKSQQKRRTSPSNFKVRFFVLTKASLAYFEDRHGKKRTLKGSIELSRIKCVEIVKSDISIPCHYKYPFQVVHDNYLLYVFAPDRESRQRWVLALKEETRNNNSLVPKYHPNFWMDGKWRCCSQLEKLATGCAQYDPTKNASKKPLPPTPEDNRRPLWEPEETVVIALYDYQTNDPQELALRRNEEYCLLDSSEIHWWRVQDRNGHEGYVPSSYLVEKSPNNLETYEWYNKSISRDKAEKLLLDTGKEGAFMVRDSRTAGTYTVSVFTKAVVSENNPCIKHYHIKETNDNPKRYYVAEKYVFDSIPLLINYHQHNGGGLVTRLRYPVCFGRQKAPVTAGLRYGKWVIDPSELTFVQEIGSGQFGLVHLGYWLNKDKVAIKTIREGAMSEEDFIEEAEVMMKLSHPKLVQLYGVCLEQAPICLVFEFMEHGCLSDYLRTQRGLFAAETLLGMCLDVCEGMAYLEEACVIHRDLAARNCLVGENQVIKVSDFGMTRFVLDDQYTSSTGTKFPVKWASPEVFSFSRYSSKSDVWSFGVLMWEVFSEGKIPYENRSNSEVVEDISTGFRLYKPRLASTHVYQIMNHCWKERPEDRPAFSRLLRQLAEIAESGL
Settings: at 0.1 µM
# value in %; strip the unit string

Guide cases for inhibition, answers given:
-- ask Could you share which inhibition value was measured for `CN1CCN(CCCNc2nc3ccc(Oc4ccc(NC(=O)Nc5cc(C(F)(F)F)ccc5F)cc4)cc3[nH]2)CC1` ?
-- reply -2.06

-- ask Could you share which inhibition value was measured for `CCS(=O)(=O)c1ccc(OC)c(Nc2ncc(-c3cccc(-c4ccccc4F)c3)o2)c1` ?
-- reply 0.42

-- ask Could you share which inhibition value was measured for `COc1cc2ncn(-c3cc(OCc4ccccc4C(F)(F)F)c(C(C)=O)s3)c2cc1OC` ?
-- reply 0.57

-- ask Could you share which inhibition value was measured for `CN(C)c1ccc2c(c1)/C(=C/Nc1ccc(S(N)(=O)=O)cc1)C(=O)N2` ?
-- reply 1.03

Next:
-- ask Could you share which inhibition value was measured for `N#Cc1ccc(Oc2nccc(-c3c(-c4ccc(F)cc4)ncn3C3CCNCC3)n2)cc1` ?
-- reply -0.47

###

System: Serine/threonine-protein kinase B-raf (Homo sapiens), P15056 [V600E]
Sequence (P15056 whole entry V600E): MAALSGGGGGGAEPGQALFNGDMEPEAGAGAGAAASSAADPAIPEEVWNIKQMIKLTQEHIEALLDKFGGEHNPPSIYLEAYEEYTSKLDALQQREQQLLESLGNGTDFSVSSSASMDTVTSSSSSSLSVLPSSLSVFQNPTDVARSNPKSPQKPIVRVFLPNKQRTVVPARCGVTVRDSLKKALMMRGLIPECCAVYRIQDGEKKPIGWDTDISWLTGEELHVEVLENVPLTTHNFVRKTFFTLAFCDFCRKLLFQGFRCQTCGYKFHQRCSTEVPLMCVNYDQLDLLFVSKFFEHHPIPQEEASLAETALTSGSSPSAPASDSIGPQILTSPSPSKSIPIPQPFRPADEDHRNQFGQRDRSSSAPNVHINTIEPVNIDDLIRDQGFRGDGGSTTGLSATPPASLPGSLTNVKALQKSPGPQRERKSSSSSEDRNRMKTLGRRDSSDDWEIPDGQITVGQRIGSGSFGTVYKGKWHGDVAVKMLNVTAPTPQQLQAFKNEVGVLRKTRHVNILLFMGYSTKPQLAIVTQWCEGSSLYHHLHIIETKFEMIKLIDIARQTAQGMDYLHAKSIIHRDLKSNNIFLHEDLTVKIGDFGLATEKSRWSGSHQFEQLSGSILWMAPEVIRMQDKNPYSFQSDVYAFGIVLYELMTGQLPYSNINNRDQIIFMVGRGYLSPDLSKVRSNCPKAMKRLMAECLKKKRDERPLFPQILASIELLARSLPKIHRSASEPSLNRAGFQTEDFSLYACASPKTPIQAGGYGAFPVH
Conditions: at 0.1 µM
Description: GSK_PKIS: BRAF (V599E mutant) mean inhibition at 0.1 uM [Nanosyn]
Listed here are molecules together with their documented inhibition.
# value in %; strip the unit string

-- ask Item: `Fc1ccc(-c2ncn(C3CCNCC3)c2-c2ccnc(Oc3ccc4c(c3)OCO4)n2)cc1` Test system: Serine/threonine-protein kinase B-raf (Homo sapiens), P15056 [V600E] Read-out: inhibition Value: ?
-- reply 6.25

-- ask Item: `CN(C)CCOc1ccc(-c2cc(-c3ccc4c(c3)CCC4=NO)c(-c3ccncc3)o2)cc1` Test system: Serine/threonine-protein kinase B-raf (Homo sapiens), P15056 [V600E] Read-out: inhibition Value: ?
-- reply 56.3

-- ask Item: `COc1cc2ncn(-c3cc(OCc4ccccc4C(F)(F)F)c(C(C)=O)s3)c2cc1OC` Test system: Serine/threonine-protein kinase B-raf (Homo sapiens), P15056 [V600E] Read-out: inhibition Value: ?
-- reply 4.21

Next:
-- ask Item: `O=C(Nc1n[nH]c2cc(-c3cc(F)ccc3F)ccc12)C1CC1` Test system: Serine/threonine-protein kinase B-raf (Homo sapiens), P15056 [V600E] Read-out: inhibition Value: ?
-- reply 5.62

-- ask Item: COc1ccc2cc(-c3c(-c4ccncc4)nc(-c4ccc([S+](C)[O-])cc4C)n3C)ccc2c1 (stereo not drawn) Test system: Serine/threonine-protein kinase B-raf (Homo sapiens), P15056 [V600E] Read-out: inhibition Value: ?;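 note: mean inhibition of the BRAF V599E mutant, from GSK PKIS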
-- reply -0.1

###

Biological target: Serine/threonine-protein kinase PAK 3 (Homo sapiens) (UniProt O75914);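 note: reported percentage is a mean inhibition value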
Sequence (O75914 whole entry, looked up): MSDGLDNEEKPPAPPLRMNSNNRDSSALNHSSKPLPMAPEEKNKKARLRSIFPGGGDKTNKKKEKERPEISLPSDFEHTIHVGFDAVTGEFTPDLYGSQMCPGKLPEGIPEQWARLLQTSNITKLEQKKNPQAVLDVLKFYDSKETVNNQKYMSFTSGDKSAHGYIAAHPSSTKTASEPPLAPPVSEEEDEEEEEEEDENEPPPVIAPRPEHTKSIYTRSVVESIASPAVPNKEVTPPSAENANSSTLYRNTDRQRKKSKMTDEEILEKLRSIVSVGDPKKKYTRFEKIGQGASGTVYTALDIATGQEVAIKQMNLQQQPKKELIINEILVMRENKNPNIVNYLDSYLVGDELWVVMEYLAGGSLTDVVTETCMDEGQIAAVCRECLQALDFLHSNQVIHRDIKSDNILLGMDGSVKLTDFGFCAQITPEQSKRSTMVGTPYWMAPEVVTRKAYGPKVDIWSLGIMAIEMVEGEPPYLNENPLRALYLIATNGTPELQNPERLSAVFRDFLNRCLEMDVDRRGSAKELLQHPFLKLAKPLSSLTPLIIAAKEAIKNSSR
Conditions: at 1 µM
Measurement Label: inhibition (%)
# value in %; strip the unit string

-- ask Could you share which inhibition value was measured for `CCc1ccc(Oc2nccc(-c3c(-c4ccc(F)cc4)ncn3C3CCNCC3)n2)cc1` ?
-- reply 5.69

-- ask Could you share which inhibition value was measured for `CN1CCN(CCCNc2nc3ccc(Oc4ccc(NC(=O)Nc5cc(C(F)(F)F)ccc5F)cc4)cc3[nH]2)CC1` ?
-- reply 2.65

-- ask Could you share which inhibition value was measured for `O=C(Nc1n[nH]c2cc(-c3ccccc3)ccc12)C1CC1` ?
-- reply 6.01

-- ask Could you share which inhibition value was measured for `CS(=O)(=O)CCNCc1cc(-c2cc3c(Nc4ccc(OCc5cccc(F)c5)c(Cl)c4)ncnc3s2)cs1` ?
-- reply 7.41

Here's the next entry for you.
-- ask Could you share which inhibition value was measured for `NCc1ccc(-n2c(-c3nonc3N)nc3cnccc32)cc1` ?
-- reply 6.83

###

Molecular target: Leukocyte tyrosine kinase receptor (Homo sapiens) (UniProt P29376)
Sequence (P29376 whole entry): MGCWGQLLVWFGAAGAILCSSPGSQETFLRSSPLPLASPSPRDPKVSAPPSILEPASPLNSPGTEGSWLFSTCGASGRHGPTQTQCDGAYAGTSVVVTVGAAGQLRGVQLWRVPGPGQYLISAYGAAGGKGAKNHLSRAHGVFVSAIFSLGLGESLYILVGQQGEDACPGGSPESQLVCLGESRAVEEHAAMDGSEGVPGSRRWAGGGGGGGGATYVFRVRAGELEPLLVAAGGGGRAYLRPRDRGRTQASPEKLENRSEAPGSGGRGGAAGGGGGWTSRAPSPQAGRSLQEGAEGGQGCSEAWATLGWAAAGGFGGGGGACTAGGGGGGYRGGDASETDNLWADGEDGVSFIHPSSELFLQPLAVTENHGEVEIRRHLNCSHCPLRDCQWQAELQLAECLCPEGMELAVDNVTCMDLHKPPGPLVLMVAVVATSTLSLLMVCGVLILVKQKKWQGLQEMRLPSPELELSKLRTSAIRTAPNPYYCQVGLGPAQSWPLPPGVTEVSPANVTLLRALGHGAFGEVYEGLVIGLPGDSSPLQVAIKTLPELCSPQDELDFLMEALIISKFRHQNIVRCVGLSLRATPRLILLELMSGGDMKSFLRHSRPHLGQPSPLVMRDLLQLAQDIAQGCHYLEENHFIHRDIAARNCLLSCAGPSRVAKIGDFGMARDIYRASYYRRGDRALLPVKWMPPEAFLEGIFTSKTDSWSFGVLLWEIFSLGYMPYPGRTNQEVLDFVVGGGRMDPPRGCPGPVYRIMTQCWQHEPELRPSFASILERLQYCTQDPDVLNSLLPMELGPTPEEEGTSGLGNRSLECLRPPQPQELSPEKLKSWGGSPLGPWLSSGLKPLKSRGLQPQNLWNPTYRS
Details: at 0.1 µM
Description: GSK_PKIS: LTK mean inhibition at 0.1 uM [Nanosyn]
Measurement Label: inhibition (%)
# value in %; strip the unit string

Guide cases for inhibition, answers given:
-- ask Could you share which inhibition value was measured for `C/C(Nc1ccc(S(N)(=O)=O)cc1)=C1/C(=O)Nc2ccccc21` ?
-- reply 1.12

-- ask Could you share which inhibition value was measured for `O=C1Nc2ccccc2/C1=C/Nc1ccc(-n2cncn2)cc1` ?
-- reply 3.3

-- ask Could you share which inhibition value was measured for `Cc1ccc(C(=O)NC(C)C)cc1-c1ccc(C(=O)NCC2CC2)cc1` ?
-- reply -1.19

-- ask Could you share which inhibition value was measured for `COc1ccc2ncn(-c3cc(O[C@H](C)c4ccccc4Cl)c(C(N)=O)s3)c2c1` ?
-- reply 2.73

-- ask Could you share which inhibition value was measured for `NC(=O)c1cc(-c2ccncc2)cc(-c2ccccc2)c1N` ?
-- reply 5.44

-- ask Could you share which inhibition value was measured for `COc1cc2ncn(-c3cc(OCc4cccs4)c(C(N)=O)s3)c2cc1OC` ?
-- reply 1.76

Next:
-- ask Could you share which inhibition value was measured for `NCc1ccc(-n2c(-c3nonc3N)nc3cnccc32)cc1` ?
-- reply 5.22

-- ask Could you share which inhibition value was measured for `Fc1ccc(-c2ncn(CCCN3CCOCC3)c2-c2ccncc2)cc1` ?
-- reply 0.08

###

Listed here are compounds together with their documented inhibition.
Target: MAP kinase-activated protein kinase 2 (Homo sapiens) (UniProt P49137)
Sequence (P49137 whole entry, looked up): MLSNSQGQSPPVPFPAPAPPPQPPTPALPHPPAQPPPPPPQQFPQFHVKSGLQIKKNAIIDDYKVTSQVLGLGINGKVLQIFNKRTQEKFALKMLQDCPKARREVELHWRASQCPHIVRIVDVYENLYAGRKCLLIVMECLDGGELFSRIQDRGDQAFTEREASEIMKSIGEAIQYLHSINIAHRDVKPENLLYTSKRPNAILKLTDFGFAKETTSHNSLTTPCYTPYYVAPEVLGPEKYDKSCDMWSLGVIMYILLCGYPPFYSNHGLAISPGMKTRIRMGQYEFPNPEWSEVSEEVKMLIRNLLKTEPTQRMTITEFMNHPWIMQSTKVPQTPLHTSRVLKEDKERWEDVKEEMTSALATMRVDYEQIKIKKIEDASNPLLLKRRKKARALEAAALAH
Conditions: at 0.1 µM
# value in %; strip the unit string

Guide cases for inhibition, answers given:
-- ask Item: `C[C@@H](Oc1cc(-n2cnc3ccc(OC4CCN(C)CC4)cc32)sc1C(N)=O)c1ccccc1Cl` Test system: MAP kinase-activated protein kinase 2 (Homo sapiens) (UniProt P49137) Read-out: inhibition Value: ?
-- reply 1.32

-- ask Item: `Cc1ccc(C(=O)NC(C)C)cc1-c1ccc(C(=O)NCC2CC2)cc1` Test system: MAP kinase-activated protein kinase 2 (Homo sapiens) (UniProt P49137) Read-out: inhibition Value: ?
-- reply -1.44

-- ask Item: `Fc1ccc(-c2ncn(C3CCNCC3)c2-c2ccnc(Oc3ccc(Oc4ccccc4)cc3)n2)cc1` Test system: MAP kinase-activated protein kinase 2 (Homo sapiens) (UniProt P49137) Read-out: inhibition Value: ?
-- reply 5.15

-- ask Item: `O=C(NCC1CC1)c1ccc(-c2cccc(C(=O)NC3CC3)c2)cc1` Test system: MAP kinase-activated protein kinase 2 (Homo sapiens) (UniProt P49137) Read-out: inhibition Value: ?
-- reply 0.95

-- ask Item: `CCc1ccc(Oc2nccc(-c3c(-c4ccc(F)cc4)ncn3C3CCNCC3)n2)cc1` Test system: MAP kinase-activated protein kinase 2 (Homo sapiens) (UniProt P49137) Read-out: inhibition Value: ?
-- reply 1.96

-- ask Item: `Fc1ccc(-c2ncn(CCCN3CCOCC3)c2-c2ccncc2)cc1` Test system: MAP kinase-activated protein kinase 2 (Homo sapiens) (UniProt P49137) Read-out: inhibition Value: ?
-- reply -0.27

-- ask Item: `CN(C)CCCNc1nccc(-c2c(-c3ccc(F)cc3)nn3cc(C(F)(F)F)ccc23)n1` Test system: MAP kinase-activated protein kinase 2 (Homo sapiens) (UniProt P49137) Read-out: inhibition Value: ?
-- reply -0.13

-- ask Item: `CN(c1ccc(NC(=O)Nc2c(Cl)cccc2Cl)cc1)c1ccnc(Nc2cccc(CS(C)(=O)=O)c2)n1` Test system: MAP kinase-activated protein kinase 2 (Homo sapiens) (UniProt P49137) Read-out: inhibition Value: ?
-- reply 0.46

Here's the next entry for you.
-- ask Item: `Fc1ccc(-c2ncn(C3CCNCC3)c2-c2ccnc(Oc3ccc4c(c3)OCO4)n2)cc1` Test system: MAP kinase-activated protein kinase 2 (Homo sapiens) (UniProt P49137) Read-out: inhibition Value: ?;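 note: figures are mean inhibition values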
-- reply 0
